Ref: patent US5328902A

system: S. aureus ROSE (MP); test: MIC, agar dilution; type: cell-based; details: S. aureus ROSE (MP)
observed.property: MIC

>  <structure.smiles>
C#CCN(C)CC(=O)Nc1cc(N(C)C)c2c(c1O)C(=O)C1=C(O)[C@]3(O)C(=O)C(C(N)=O)=C(O)[C@@H](N(C)C)[C@@H]3C[C@@H]1C2

>  <observed.property>
MIC

>  <measured.value>
> 32 µg/mL

$$$$
>  <structure.smiles>
CN(C)c1cc(NC(=O)CNCCCCO)c(O)c2c1C[C@H]1C[C@H]3[C@H](N(C)C)C(O)=C(C(N)=O)C(=O)[C@@]3(O)C(O)=C1C2=O

>  <observed.property>
MIC

>  <measured.value>
> 32 µg/mL

$$$$
>  <structure.smiles>
CN(C)c1cc(NC(=O)CNCCN2CCCCC2)c(O)c2c1C[C@H]1C[C@H]3[C@H](N(C)C)C(O)=C(C(N)=O)C(=O)[C@@]3(O)C(O)=C1C2=O

>  <observed.property>
MIC

>  <measured.value>
> 32 µg/mL

$$$$
